- assayed.target: ComD1 receptor (Streptococcus pneumoniae)
- assay.name: cell-based or functional assay
Square brackets hold non-standard residues; d marks the D form. Ends that are not written are not given here.
reported.endpoint: EC50 (ComD1 EC50/IC50; β-gal reporter) (nM)
Quick note: give the figure in nM, leave out the unit.

- binder: "EMRISRIIL[dD]FLFLRKK [CSP2-d10]"
  data.value: 513
- binder: "EMRLSAFFRDFILQRKK [CSP1-K6A]"
  data.value: 51
- binder: "EMRLSKFFRDFILQRKK [CSP1 (competence stimulating peptide 1)]"
  data.value: 10.3

Now look at this one.
# binder EMRISRIILDFLFLRKK [CSP2 (competence stimulating peptide 2)] ; its EC50 (ComD1 EC50/IC50; β-gal reporter) = 1650
